Species on record: Rattus norvegicus
assay_notes: Open TG-GATES - Regimen: Single
Assay type: toxicity, organism-based, Sprague-Dawley
Parameters: regimen Single, gender Male, age 6 weeks
applied_conditions: in vivo, po, 100 mg/kg, 24 h, tissue Blood, route gavage, dose level Low
WBC by entry:
Value expressed in x10_2/uL; do not type the unit.

[
  {
    "compound": "C[C@H](CS)C(=O)N1CCC[C@H]1C(=O)O [CAPTOPRIL]",
    "WBC / x10_2/uL": 82.6
  }
]

Given item O=C(O)c1cn(C2CC2)c2cc(N3CCNCC3)c(F)cc2c1=O [CIPROFLOXACIN] , the value recorded as its WBC is 102.8
